These measurements were taken from paper PMC3983348.

Molecular target: recombinant TDP1 (Homo sapiens, UniProt Q9NUW8)
Sequence (Q9NUW8 whole entry): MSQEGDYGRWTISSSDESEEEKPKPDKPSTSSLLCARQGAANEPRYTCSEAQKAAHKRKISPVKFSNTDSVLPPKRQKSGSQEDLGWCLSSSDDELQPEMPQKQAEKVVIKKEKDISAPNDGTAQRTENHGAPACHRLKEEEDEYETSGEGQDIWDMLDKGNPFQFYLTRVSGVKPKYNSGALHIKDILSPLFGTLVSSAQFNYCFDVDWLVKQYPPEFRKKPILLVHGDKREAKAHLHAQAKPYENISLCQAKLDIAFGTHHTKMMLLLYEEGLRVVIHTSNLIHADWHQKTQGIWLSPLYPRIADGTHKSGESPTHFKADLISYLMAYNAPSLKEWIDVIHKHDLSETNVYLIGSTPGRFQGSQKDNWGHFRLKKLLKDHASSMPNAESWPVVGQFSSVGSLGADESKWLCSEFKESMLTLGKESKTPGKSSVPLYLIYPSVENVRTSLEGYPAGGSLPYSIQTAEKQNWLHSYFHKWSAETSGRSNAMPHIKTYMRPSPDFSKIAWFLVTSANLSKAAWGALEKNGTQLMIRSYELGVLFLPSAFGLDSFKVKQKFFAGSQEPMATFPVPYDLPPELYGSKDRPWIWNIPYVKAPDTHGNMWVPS
Assay: Gel-based assay measuring the inhibition of recombinant TDP1
Assay type: biochemical
Settings: read-out: TDP1 inhibition; score according to IC50
value type: IC50

INSERT INTO results (compound, value_type, value_reported) VALUES
  ('O=C1c2ccccc2-c2c1c1ccc([N+](=O)[O-])cc1c(=O)n2C[C@@H](O)[C@@H](O)[C@H](O)CO [Compound 67]', 'IC50', '12 to 37 µM'),
  ('COc1cc2c3c(n(C[C@H](O)[C@@H](O)[C@@H](O)[C@H](O)CO)c(=O)c2cc1OC)-c1cc2c(cc1C3=O)OCO2 [Compound 59]', 'IC50', '37 to 111 µM'),
  ('O=C1c2ccccc2-c2c1c1ccc([N+](=O)[O-])cc1c(=O)n2C[C@H](O)[C@@H](O)[C@H](O)CO [Compound 68]', 'IC50', '37 to 111 µM');

Here is the next item to consider.
Input: Would you mind telling me what IC50 value was observed for O=C1c2ccccc2-c2c1c1ccc([N+](=O)[O-])cc1c(=O)n2C[C@@H](O)[C@H](O)[C@H](O)CO [Compound 65] ?
Output: 37 to 111 µM

====

Target: recombinant TDP1 (Homo sapiens, UniProt Q9NUW8)
Assay: Gel-based assay measuring the inhibition of recombinant TDP1
Type: biochemical
Details: read-out: TDP1 IC50
value type: IC50

Input: Would you mind telling me what IC50 value was observed for COc1cc2c3c(n(C[C@@H]4O[C@H](CO)[C@@H](O)[C@H](O)[C@H]4O)c(=O)c2cc1OC)-c1cc2c(cc1C3=O)OCO2 [Compound 62] ?
Output: ≥ 12 µM

====

Target: recombinant TDP1 (Homo sapiens)
Assay: Gel-based assay measuring the inhibition of recombinant TDP1
Assay type: biochemical
value type: IC50

Input: Would you mind telling me what IC50 value was observed for O=C1c2ccccc2-c2c1c1ccc([N+](=O)[O-])cc1c(=O)n2C[C@@H]1O[C@H](CO)[C@@H](O)[C@H](O)[C@H]1O ?
Output: ≥ 12 µM

====

Molecular target: recombinant Top1 (Homo sapiens)
Sequence (P11387 whole entry): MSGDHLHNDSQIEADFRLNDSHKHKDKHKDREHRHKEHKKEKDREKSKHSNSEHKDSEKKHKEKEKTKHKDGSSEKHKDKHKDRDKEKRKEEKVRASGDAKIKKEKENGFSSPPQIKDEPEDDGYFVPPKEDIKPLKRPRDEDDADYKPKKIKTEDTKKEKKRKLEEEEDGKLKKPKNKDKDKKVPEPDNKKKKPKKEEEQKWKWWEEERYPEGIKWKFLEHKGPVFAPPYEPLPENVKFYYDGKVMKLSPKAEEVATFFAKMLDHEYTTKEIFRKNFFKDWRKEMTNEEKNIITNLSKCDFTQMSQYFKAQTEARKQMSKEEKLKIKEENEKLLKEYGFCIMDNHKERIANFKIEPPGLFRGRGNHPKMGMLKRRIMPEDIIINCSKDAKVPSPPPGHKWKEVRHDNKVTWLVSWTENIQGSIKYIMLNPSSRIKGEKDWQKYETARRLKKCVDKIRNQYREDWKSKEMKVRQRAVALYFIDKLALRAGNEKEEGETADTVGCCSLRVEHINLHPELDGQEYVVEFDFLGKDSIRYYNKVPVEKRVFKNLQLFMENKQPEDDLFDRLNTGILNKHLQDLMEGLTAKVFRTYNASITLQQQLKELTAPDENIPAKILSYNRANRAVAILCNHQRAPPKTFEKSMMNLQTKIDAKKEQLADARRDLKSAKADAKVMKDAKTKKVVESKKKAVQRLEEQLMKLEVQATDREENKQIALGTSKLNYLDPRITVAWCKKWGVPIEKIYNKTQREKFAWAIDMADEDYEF
Assay: Top1-mediated DNA cleavage assay
Type: biochemical
Details: compound-induced DNA cleavage, score based on the activity of 1 μM camptothecin
value type: Top1 cleavage

INSERT INTO measurements (compound, value_reported) VALUES
  ('COc1cc2c3c(n(CC(O)CO)c(=O)c2cc1OC)-c1cc2c(cc1C3=O)OCO2 (stereo not shown)', '++++'),
  ('COc1cc2c3c(n(C[C@@H](O)[C@@H](O)[C@H](O)[C@H](O)CO)c(=O)c2cc1OC)-c1cc2c(cc1C3=O)OCO2', '++++');

====

Target: recombinant TDP1 (Homo sapiens, UniProt Q9NUW8)
Experiment: Gel-based assay measuring the inhibition of recombinant TDP1
Assay type: biochemical
Details: read-out: TDP1 inhibition; score according to IC50
value type: IC50

Consider the reported IC50 for these molecules:
INSERT INTO assay_data (molecule, value_type, value_reported) VALUES
  ('O=C1c2ccccc2-c2c1c1ccc([N+](=O)[O-])cc1c(=O)n2C[C@@H]1O[C@H](CO)[C@@H](O)[C@H](O)[C@H]1O [Compound 71]', 'IC50', '12 to 37 µM'),
  ('COc1cc2c3c(n(C[C@@H]4O[C@H](CO)[C@@H](O)[C@H](O)[C@H]4O)c(=O)c2cc1OC)-c1cc2c(cc1C3=O)OCO2 [Compound 62]', 'IC50', '37 to 111 µM'),
  ('O=C1c2ccccc2-c2c1c1ccc([N+](=O)[O-])cc1c(=O)n2C[C@@H](O)[C@@H](O)[C@H](O)[C@H](O)CO [Compound 70]', 'IC50', '37 to 111 µM');

Here is the next item to consider.
Input: Would you mind telling me what IC50 value was observed for COc1cc2c3c(n(C[C@H](O)[C@H](O)[C@H](O)CO)c(=O)c2cc1OC)-c1cc2c(cc1C3=O)OCO2 [Compound 56] ?
Output: 37 to 111 µM
